B1: SFRS1 (parent)
chain: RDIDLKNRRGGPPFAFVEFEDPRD

Variants of: B1
Test: protein stability index of a GFP-peptide fusion (GPS, HEK-293T) (PSI 1-6); higher = more stable;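 note: lentivirally expressed fusions sorted by FACS into six bins by GFP to DsRed ratio, PSI derived from sequencing read proportions per bin multiplied by bin number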
Details: c terminus: a fixed tail appended
Readout type: protein stability index

The cases that follow already have their protein stability index on record.
[
  {
    "Sequence change": "D24C",
    "Result": 2.46
  },
  {
    "Sequence change": "R1N",
    "Result": 4.2
  },
  {
    "Sequence change": "R8I",
    "Result": 4.08
  }
]

Parameter requested: protein stability index. Apply to each item below.
1. P12F
2. G11C
3. E18M
4. D4I
5. L5R

3.5
3.77
2.35
3.17
3.35

Parameter requested: protein stability index. Apply to each item below.
1. D24V
2. V17Q
3. L5C

1: 3.11; 2: 4.61; 3: 3.11

Parameter requested: protein stability index. Apply to each item below.
1. F16G
2. G11E

1: 5.32; 2: 4.47
